The reported numbers originate from ChEMBL document CHEMBL3232794.

Quick record: pIC50, Epidermal growth factor receptor (Homo sapiens, UniProt P00533, L858R/T790M).
// scale note: pIC50 = -log10(conc_M); give the bare number

SMILES INPUT | ASSAY RESULT
CCOC(=O)N1CCN(CCC(=O)Nc2cccc(Oc3nc(Nc4ccc(N5CCN(C)CC5)cc4OC)ncc3Cl)c2)CC1 | 6.27
CCN(CC)CCC(=O)Nc1cccc(Oc2nc(Nc3ccc(N4CCN(C)CC4)cc3OC)ncc2Cl)c1 | 6.74
COc1cc(N2CCN(C)CC2)ccc1Nc1ncc(Cl)c(Oc2cccc(NC(=O)CCN3CCN(CCOc4no[n+]([O-])c4S(=O)(=O)c4ccccc4)CC3)c2)n1 | 6.58
COc1cc(N2CCN(C)CC2)ccc1Nc1ncc(Cl)c(Oc2cccc(NC(=O)CCN(C)C)c2)n1 | 6.74
COc1cc(N2CCN(C)CC2)ccc1Nc1ncc(Cl)c(Oc2cccc(NC(=O)CCN3CCN(C)CC3)c2)n1 | 5.33

Jot down pIC50 (Epidermal growth factor receptor (Homo sapiens, UniProt P00533, L858R/T790M)) of `COc1cc(N2CCN(C)CC2)ccc1Nc1ncc(Cl)c(Oc2cccc(NC(=O)CCN3CCCCC3)c2)n1` .
5.66

Jot down pIC50 (Epidermal growth factor receptor (Homo sapiens, UniProt P00533, L858R/T790M)) of `COc1cc(N2CCN(C)CC2)ccc1Nc1ncc(Cl)c(Oc2cccc(NC(=O)CCN3CCN(CCO)CC3)c2)n1` .
5.62

Jot down pIC50 (Epidermal growth factor receptor (Homo sapiens, UniProt P00533, L858R/T790M)) of `COc1cc(N2CCN(C)CC2)ccc1Nc1ncc(Cl)c(Oc2cccc(NC(=O)CCN3CCCC3)c2)n1` .
7.06
